Entry source: the DeepSol protein solubility set

- method.summary: soluble on expression in E. coli; label from the status in PepcDB or PDB records
experimental.endpoint: soluble on expression in E. coli

- MAHHHHHHMIGKIFDNAFRIRTYNRFVCFLIGGTFAYSFSNPDMDTVYDLFPIFKQNKYAYLTFLEVNEKHSNVFEERLKDLCRFYQKQPGYLYTKIIKRIDNINDISKYIVISTWIKSENYLLACNRMYGQILINKIQNYAKYNSYLYRIVVDDSDYLPPI: not soluble
- MADSTPILFDRRLLAARLHRAAALGPAPFLLDRVAEEMDERLHAVLRDFTEVADLWTPGGLKLQRFPKLAHLAVDPSGSEALPFAPGSLDLVVSALALQFANDLPGVLAQLRRALKPDGLLLAALTGGETLTELRQAFASAEAEIEGGVSPRVAPAADLRDLGALLQRAGFALPVTDVDRVVVRYDHAFALMQDLRRMGATNVLIERRRTPLRRATLTRMAQIYADRFSDPDGRIRATFEIVWLSGWSPHESQQQPLKPGSAKVSLEEAVRGKRLEHHHHHH: not soluble
- MGSDKIHHHHHHMKRARIIYNPTSGREIFKKHLAQVLQKFEQAGYETSTHATTCAGDATHAAKEAALREFDLIIAAGGDGTINEVVNGLAPLDNRPTLGVIPVGTTNDFARALGIPREDILKAADTVINGVARPIDIGQVNGQYFINIAGGGRLTELTYDVPSKLKTMLGQLAYYLKGMEMLPSLRPTEVEIEYDGKLFQGEIMLFLVTLTNSVGGFEKLAPDSSLNDGMFDLMILKKANLAEFIRVATMALRGEHINDQHIIYTKANRVKVNVSEKMQLNLDGEYGGMLPGEFVNLYRHIHVVMPKEKAEQLDD: not soluble

---

- method.summary: soluble on expression in E. coli; label from the status in PepcDB or PDB records
experimental.endpoint: soluble on expression in E. coli

- MTHVCSVILIRRSFDIYHEQQKISLHNESILLLEKNLADDFAFCSPDTRRLDIDELTVCHYLQNIRQLPRNLGLHSKDRLLINQSPPMPLVTAIFDSFNESGVNSPILSNMLYLSCLSMFSHKKELIPLLFNSISTVSGKVERLISFDIAKRWYLRDIAERMYTSESLIKKKLQDENTCFSKILLASRMSMARRLLELRQIPLHTIAEKCGYSSTSYFINTFRQYYGVTPHQFAQHSPGTFS: not soluble
- MGSDKIHHHHHHMALAKLPQLESVFLTDAGLETDFIFNRGIDLPYFASITLLQSSDGKIALEEYFRGFLELARRMRCGLILESATWRASPDWAEPLGLSQQELDTLNTSAIAILRDLRDEFGSTMPAVVISGCLGPRGDGYDPGKIMSEEGAEAYHRHQAEVLASAGVDQLTAITMTNVPEAIGIAKAAKSLAVPVAISFTVETDGRLPTGDRLSDALRAVDQATASTPAYYMINCAHPSHFAAVLEDGADWVNRIGGLRANASRCSHAEVDAMSELDRGNPEELAALHSELRLRFPHINVLGGCCGTDLDHITAIAEACL: not soluble

---

- method.summary: soluble on expression in E. coli; label from the status in PepcDB or PDB records
experimental.endpoint: soluble on expression in E. coli

- MALKLPIPHNILILNRNSALELLRALKEVPKLIITRIPPDEWPDVAYTEYIWLSRVEGPNSVSPTALHVIIERAKTFLDENSGGVIYVDGIEYIMLYEEFKSVAKFLLTLKDIAVVKEGHLILHVDPKTLEDHQMAVLEREFVKINVEETIEKIRGPTLFGALIEEKGLEHHHHHH: soluble
- MPTPGTGSVPELQLVPFQLGHFPILQRWFATEKELVQWAGPALRHPLSLEQMHEDLAESRRRPPLRLLWSACRDDQVIGHCQLLFDRRNGVVRLARIVLAPSARGQGLGLPMLEALLAEAFADADIERVELNVYDWNAAARHLYRRAGFREEGLRRSATRVGRERWNVVLMGLLRQEWAAGGAGND: soluble
- MGCSHSKNKNSKSKSAILKKEHPLERSIHHNRVAHFDETQPTSQSTSVESEELNVKHYSKTLLNDTVEPTHQKTSAHVPEKSIKKQEVKQEVKKHETTTVVHTNVHVPKPTHKLPQASEIPIERMGSDPHTAIAPTYQQKQFATSTYYPMPTIGEKQKSPEKAKPARKVDNTDEKKRKKDQNEKPVINGPNVRHQLTPEDLEYIKRSVQQRNERRAFMMAHRNETDDTLYELEVRMPEKDYTNRMEVGQNYRVC: not soluble
- MAENYQQAAKDIIQLIGMDNIISVTHCQTRLRFILKDHEQVDGKQLEKIDLVKGVFYNGGQYQVILGTGIVTKVYDEIEKLGINVVSKAEQTAI: not soluble
